# credit: ChEMBL document CHEMBL4823243

- Experimental system: Histone deacetylase
- Assay notes: Inhibition of HDAC in human A2780 cells using Boc-Lys (acetyl)-AMC as substrate preincubated for 18 hrs followed by susbtrate addition and measured after 3 hrs by fluorescence microplate reader assay
- Assay type: cell-based
Recorded IC50 split into classes range A: < 600 nM; range B: ≥ 600 nM and < 2000 nM; range C: ≥ 2000 nM

[in] # bin label for "O=C(CCCCCONC(=O)c1nc2ccccc2[nH]1)NO"
[out] range C

[in] GET /class?item= "O=C(CCCCCONC(=O)Cc1ccc2ccccc2c1)NO"
[out] range C

[in] Kindly state the category for this compound: "O=C(CCCCCONC(=O)c1ccc2[nH]ccc2c1)NO"
[out] range B

[in] Using the reported IC50, which band applies to "O=C(CCCCCONC(=O)c1ccc2ccccc2c1)NO" ?
[out] range A

[in] Just checking, what class would you give "O=C(CCCCCONC(=O)c1c[nH]c2ccccc12)NO" here?
[out] range B

***
[in] Using the reported IC50, which band applies to "O=C(CCCCCONC(=O)c1cc2ccccc2[nH]1)NO" ?
[out] range B

[in] Would you mind sorting "O=C(CCCCCONC(=O)c1ccc2ccccc2n1)NO" into the appropriate category?
[out] range A

[in] Class label required: "O=C(CCCCCONC(=O)c1cccc2[nH]ccc12)NO"
[out] range B

[in] Assign a category based on measured IC50 for "O=C(CCCCCONC(=O)c1cnc2ccccc2n1)NO" and give only the class name.
[out] range A

[in] Could you tell me which band "O=C(CCCCCONC(=O)c1cc2ccccc2s1)NO" belongs to?
[out] range B

[in] Entry "O=C(CCCCCONC(=O)c1nccc2ccccc12)NO" belongs to which category?
[out] range A

[in] Lab log: "O=C(CCCCCONC(=O)c1cccc2cc[nH]c12)NO" — assign IC50 category
[out] range B

[in] Given "O=C(CCCCCONC(=O)c1ccnc2ccccc12)NO" , name the class its IC50 places it in.
[out] range C

[in] Input "O=C(CCCCCONC(=O)c1cccc2ccccc12)NO" ; output its category
[out] range C
